Measured Ratio values are reported for all entries that follow.
experiment: Efflux ratio of apparent permeability across […] in MDCK-MDR1 incubated for 120 mins by LC-MS analysis; type: ADME, cell-based, Canis lupus familiaris; conditions: dog, mdck-mdr1, 2 h
Quantity Name: Ratio

- Cc1cc2ccc(Cn3c(C(=O)N(C)c4ccccc4)noc3=O)cc2nc1N: 1
- Cc1cc2ccc(Cn3c(C(=O)N(C)c4ccccc4)coc3=O)cc2nc1N: 2
- Cc1cc2ccc(Cn3nccc3C(=O)N(C)c3ncccc3F)cc2nc1N: 1
- Cc1cc2ccc(Cn3c(C(=O)N(C)c4ccccn4)nn(C)c3=O)cc2nc1N: 17
- Cc1cc2ccc(Cn3c(C(=O)N(C)c4ccccc4)nccc3=O)cc2nc1N: 8
